System: MelJuSo cells
Assay: Cell viability (CellTiter-Glo ATP content) in MelJuSo cells
Assay type: cell-based
Conditions: Homo sapiens, MEL-JUSO, 72 hours treatment, cell survival by CellTiter-Glo, 2% fetal bovine serum
measure: IC50

Please look at this compound and report its IC50: CCCCC1C(c2ccc(F)cc2)=NN(c2ccccc2)C1(C)C(=O)NCCc1ccc(O)cc1 (centres unmarked)
0.5 to 1 µM

Please look at this compound and report its IC50: COCCNC(=O)C1(C)C(c2cccn2C)C(c2ccc(F)cc2)=NN1c1ccc(F)cc1F (centres unmarked)
> 2 µM

Please look at this compound and report its IC50: CCCCC1C(c2ccc(F)cc2)=NN(c2ccc(F)cc2F)C1(C)C(=O)NCC(=O)O (centres unmarked)
> 2 µM

Please look at this compound and report its IC50: COC(=O)CNC(=O)C1(C)C(c2cccs2)C(c2ccc(F)cc2)=NN1c1ccc(F)cc1F (centres unmarked)
< 0.25 µM

Please look at this compound and report its IC50: CCCCC1C(c2ccc(F)cc2)=NN(c2ccc(C)cc2)C1(C)C(=O)NCCOC (centres unmarked)
< 0.25 µM

Please look at this compound and report its IC50: COC(=O)CNC(=O)C1(C)C(c2ccc(F)cc2F)=NN(c2ccc(F)cc2F)C1c1ccc(Cl)o1 (centres unmarked)
0.5 to 1 µM

Please look at this compound and report its IC50: COCCNC(=O)C1(C)C(c2cccs2)C(c2ccc(F)cc2)=NN1c1ccc(F)cc1F (centres unmarked)
< 0.25 µM

Please look at this compound and report its IC50: CCCCC1C(c2ccc(F)cc2)=NN(c2ccc(Cl)cc2)C1(C)C(=O)NCCCC(C)(C)CO (centres unmarked)
1 to 2 µM

###

Tested on: MelJuSo cells
Test: Cell viability (CellTiter-Glo ATP content) in MelJuSo cells
Type: cell-based
Settings: Homo sapiens, MEL-JUSO, 72 hours treatment, cell survival by CellTiter-Glo, 2% fetal bovine serum
For each of the compounds below, state its IC50.

Please look at this compound and report its IC50: CCCCC1C(c2ccc(F)cc2)=NN(c2ccccc2)C1(C)C(=O)NCCCN1CCCCC1 (stereo not shown)
> 2 µM

Please look at this compound and report its IC50: CCCCC1C(c2ccc(F)cc2)=NN(c2cccc(C)c2)C1(C)C(=O)NCCCC(C)(C)CO (stereo not shown)
0.5 to 1 µM

Please look at this compound and report its IC50: CCCCC1C(c2ccc(F)cc2)=NN(c2ccccc2)C1(C)C(=O)NCC(C)N(C)C (stereo not shown)
> 2 µM

Please look at this compound and report its IC50: CCCCC1C(c2ccc(F)cc2)=NN(c2ccccc2)C1(C)C(=O)NC(C)(C)CO (stereo not shown)
> 2 µM

Please look at this compound and report its IC50: CCCCC1C(c2ccc(F)cc2)=NN(c2ccccc2)C1(C)C(=O)NCc1cccc(OC)c1OC (stereo not shown)
> 2 µM

Please look at this compound and report its IC50: CC1(C(=O)NCC(O)CCO)C(c2cccs2)C(c2ccc(F)cc2)=NN1c1ccc(F)cc1F (stereo not shown)
> 2 µM

Please look at this compound and report its IC50: CCCCC1C(c2ccc(F)cc2)=NN(c2ccccc2)C1(C)C(=O)NCCCCO (stereo not shown)
1 to 2 µM

Please look at this compound and report its IC50: CC1(C(=O)NCC(=O)N2CCOCC2)C(c2cccs2)C(c2ccc(F)cc2)=NN1c1ccc(F)cc1F (stereo not shown)
> 2 µM

Please look at this compound and report its IC50: CC(C)(CO)CCCNC(=O)C1(C)C(c2ccc(F)cc2F)=NN(c2ccc(F)cc2F)C1c1ccc(Cl)o1 (stereo not shown)
1 to 2 µM

Please look at this compound and report its IC50: CN1CCOC(CNC(=O)C2(C)C(c3cccs3)C(c3ccc(F)cc3)=NN2c2ccc(F)cc2F)C1 (stereo not shown)
< 0.25 µM

Please look at this compound and report its IC50: CC1(O)CC(NC(=O)CNC(=O)C2(C)C(c3cccs3)C(c3ccc(F)cc3)=NN2c2ccc(F)cc2F)C1 (stereo not shown)
> 2 µM

Please look at this compound and report its IC50: CCCCC1C(c2ccc(F)cc2)=NN(c2ccccc2)C1(C)C(=O)NCCCN1CCOCC1 (stereo not shown)
> 2 µM

Please look at this compound and report its IC50: CC1(C(=O)NCC(=O)NCCS(C)(=O)=O)C(c2cccs2)C(c2ccc(F)cc2)=NN1c1ccc(F)cc1F (stereo not shown)
> 2 µM

Please look at this compound and report its IC50: CCCCC1C(c2ccc(F)cc2)=NN(c2ccc(F)cc2F)C1(C)C(=O)NCCO (stereo not shown)
0.5 to 1 µM

Please look at this compound and report its IC50: Cn1cc(C2C(c3ccc(F)cc3)=NN(c3ccc(F)cc3F)C2(C)C(=O)NCCCC(C)(C)CO)cn1 (stereo not shown)
> 2 µM

Please look at this compound and report its IC50: COCCNC(=O)C1(C)C(c2ccco2)C(c2ccc(F)cc2)=NN1c1ccc(F)cc1F (stereo not shown)
< 0.25 µM

###

Test system: MelJuSo cells
Assay: Cell viability (CellTiter-Glo ATP content) in MelJuSo cells
Type: cell-based
Details: Homo sapiens, MEL-JUSO, 72 hours treatment, cell survival by CellTiter-Glo, 2% fetal bovine serum
measure: IC50

Please look at this compound and report its IC50: CCCCC1C(c2ccc(F)cc2)=NN(c2ccccc2)C1(C)C(=O)NCC(C)(C)CN(C)C (stereo not shown)
> 2 µM

Please look at this compound and report its IC50: COCCNC(=O)C1(C)C(c2cnn(C)c2)C(c2ccc(F)cc2)=NN1c1ccc(F)cc1F (stereo not shown)
> 2 µM

Please look at this compound and report its IC50: CCCCC1C(c2ccc(F)cc2)=NN(c2ccc(F)cc2F)C1(C)C(=O)NCCCOC (stereo not shown)
0.5 to 1 µM

Please look at this compound and report its IC50: CCCCC1C(c2ccc(F)cc2)=NN(c2ccccc2)C1(C)C(=O)NCc1cccs1 (stereo not shown)
> 2 µM

###

Tested on: A549 cells
Experiment: Cell viability (CellTiter-Glo ATP content) in A549 cells
Format: cell-based
Conditions: Homo sapiens, A549, 72 h, 72 hours treatment, cell survival by CellTiter-Glo, 2% fetal bovine serum
For each of the compounds below, state its IC50.

Please look at this compound and report its IC50: CC(C)(CO)CCCNC(=O)C1(C)C(c2ccc(Cl)o2)C(c2ccc(F)cc2F)=NN1c1ccc(F)cc1F (stereo not shown) [Compound 133]
< 0.25 µM

Please look at this compound and report its IC50: CC(C)(O)CNC(=O)CNC(=O)C1(C)C(c2cccs2)C(c2ccc(F)cc2)=NN1c1ccc(F)cc1F (stereo not shown) [Compound 104]
> 2 µM

Please look at this compound and report its IC50: CCCCC1C(c2ccc(F)cc2)=NN(c2ccc(Cl)cc2)C1(C)C(=O)NCCCC(C)(C)CO (stereo not shown) [Compound 12]
> 2 µM

Please look at this compound and report its IC50: CCCCC1C(c2ccc(F)cc2F)=NN(c2ccc(F)cc2F)C1(C)C(=O)NCCOC (stereo not shown) [Compound 90]
0.5 to 1 µM

###

Tested on: MelJuSo cells
Test: Cell viability (CellTiter-Glo ATP content) in MelJuSo cells
Format: cell-based
Conditions: Homo sapiens, MEL-JUSO, 72 hours treatment, cell survival by CellTiter-Glo, 2% fetal bovine serum
For each of the compounds below, state its IC50.

Give reported IC50 for CCCCC1C(c2ccc(F)cc2)=NN(c2ccc(C)cc2)C1(C)C(=O)NCCCOC (stereo not shown) (MelJuSo cells)
0.5 to 1 µM

Give reported IC50 for COCCNC(=O)C1(C)C(c2ccc(Cl)s2)C(c2ccc(F)cc2)=NN1c1ccc(F)cc1F (stereo not shown) (MelJuSo cells)
0.25 to 0.5 µM

Give reported IC50 for CCCCC1C(c2ccc(F)c(F)c2)=NN(c2ccccc2)C1(C)C(=O)NCCCCC(C)(C)O (stereo not shown) (MelJuSo cells)
0.5 to 1 µM

Give reported IC50 for CCCCC1C(c2ccc(F)cc2F)=NN(c2ccc(F)cc2F)C1(C)C(=O)NCCCC(C)(C)CO (stereo not shown) (MelJuSo cells)
0.5 to 1 µM

###

Test system: MelJuSo cells
Assay: Cell viability (CellTiter-Glo ATP content) in MelJuSo cells
Assay type: cell-based
Details: Homo sapiens, MEL-JUSO, 72 hours treatment, cell survival by CellTiter-Glo, 2% fetal bovine serum
For each of the molecules below, state its IC50.

Please look at this molecule and report its IC50: CC(C)(CO)CCCNC(=O)C1(C)C(c2ccsc2)C(c2ccc(F)cc2F)=NN1c1ccc(F)cc1F (centres unmarked) [Compound 117]
0.25 to 0.5 µM

Please look at this molecule and report its IC50: COC(=O)CNC(=O)C1(C)C(c2ccsc2)C(c2ccc(F)cc2F)=NN1c1ccc(F)cc1F (centres unmarked) [Compound 119]
< 0.25 µM

Please look at this molecule and report its IC50: CCCCC1C(c2ccc(F)cc2)=NN(c2ccc(Cl)cc2)C1(C)C(=O)NCCCOC (centres unmarked) [Compound 13]
> 2 µM

Please look at this molecule and report its IC50: CCCCC1C(c2ccc(F)cc2)=NN(c2ccc(F)c(OC)c2)C1(C)C(=O)NCCCC(C)(C)CO (centres unmarked) [Compound 18]
> 2 µM

Please look at this molecule and report its IC50: CC(C)(CO)CCCNC(=O)C1(C)C(c2ccco2)C(c2ccc(F)cc2F)=NN1c1ccc(F)cc1F (centres unmarked) [Compound 115]
0.25 to 0.5 µM

Ref: patent US12227482B2
